TEST_SYSTEM: T1, conarachin (undenatured) (Arachis hypogaea, UniProt P43238 P43238:26-626)
T1 sequence: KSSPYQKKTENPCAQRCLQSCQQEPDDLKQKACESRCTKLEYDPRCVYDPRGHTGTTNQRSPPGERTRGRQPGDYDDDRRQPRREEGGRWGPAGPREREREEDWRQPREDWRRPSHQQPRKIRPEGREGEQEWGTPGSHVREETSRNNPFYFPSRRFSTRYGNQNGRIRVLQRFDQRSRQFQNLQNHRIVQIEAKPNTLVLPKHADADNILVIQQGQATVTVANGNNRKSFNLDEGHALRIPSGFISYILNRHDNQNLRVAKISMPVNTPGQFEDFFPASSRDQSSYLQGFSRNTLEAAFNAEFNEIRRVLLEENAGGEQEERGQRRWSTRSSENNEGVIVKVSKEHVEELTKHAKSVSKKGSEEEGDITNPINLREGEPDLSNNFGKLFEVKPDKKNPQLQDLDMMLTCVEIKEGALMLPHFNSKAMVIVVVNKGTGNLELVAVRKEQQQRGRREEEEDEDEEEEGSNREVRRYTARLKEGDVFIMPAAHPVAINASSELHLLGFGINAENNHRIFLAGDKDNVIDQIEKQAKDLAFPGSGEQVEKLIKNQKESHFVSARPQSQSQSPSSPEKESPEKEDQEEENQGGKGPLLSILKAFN
PROTOCOL_DETAILS: SPR; 40 mM HEPES pH 7.5, 125 mM NaCl, 5 mM KCl, 1 mM MgCl2, 0.05% Tween 20
EXPERIMENTAL_CONTEXT: tags: COSMO BIO CSB-CSB-NP003601PL
pKd: −log10 of the molar value.
MEASURED_PARAMETER: pKd

CCCGCCTGTATTCCTGTCCAAAAAAAAAAAAAAAAAAAAAAAA (ssDNA) [P_NES01 (NAH1128R7Am2s19G)]
9.59
